Molecular target: JAK1 (Homo sapiens (Human), UniProt P23458)
Sequence (P23458 whole entry): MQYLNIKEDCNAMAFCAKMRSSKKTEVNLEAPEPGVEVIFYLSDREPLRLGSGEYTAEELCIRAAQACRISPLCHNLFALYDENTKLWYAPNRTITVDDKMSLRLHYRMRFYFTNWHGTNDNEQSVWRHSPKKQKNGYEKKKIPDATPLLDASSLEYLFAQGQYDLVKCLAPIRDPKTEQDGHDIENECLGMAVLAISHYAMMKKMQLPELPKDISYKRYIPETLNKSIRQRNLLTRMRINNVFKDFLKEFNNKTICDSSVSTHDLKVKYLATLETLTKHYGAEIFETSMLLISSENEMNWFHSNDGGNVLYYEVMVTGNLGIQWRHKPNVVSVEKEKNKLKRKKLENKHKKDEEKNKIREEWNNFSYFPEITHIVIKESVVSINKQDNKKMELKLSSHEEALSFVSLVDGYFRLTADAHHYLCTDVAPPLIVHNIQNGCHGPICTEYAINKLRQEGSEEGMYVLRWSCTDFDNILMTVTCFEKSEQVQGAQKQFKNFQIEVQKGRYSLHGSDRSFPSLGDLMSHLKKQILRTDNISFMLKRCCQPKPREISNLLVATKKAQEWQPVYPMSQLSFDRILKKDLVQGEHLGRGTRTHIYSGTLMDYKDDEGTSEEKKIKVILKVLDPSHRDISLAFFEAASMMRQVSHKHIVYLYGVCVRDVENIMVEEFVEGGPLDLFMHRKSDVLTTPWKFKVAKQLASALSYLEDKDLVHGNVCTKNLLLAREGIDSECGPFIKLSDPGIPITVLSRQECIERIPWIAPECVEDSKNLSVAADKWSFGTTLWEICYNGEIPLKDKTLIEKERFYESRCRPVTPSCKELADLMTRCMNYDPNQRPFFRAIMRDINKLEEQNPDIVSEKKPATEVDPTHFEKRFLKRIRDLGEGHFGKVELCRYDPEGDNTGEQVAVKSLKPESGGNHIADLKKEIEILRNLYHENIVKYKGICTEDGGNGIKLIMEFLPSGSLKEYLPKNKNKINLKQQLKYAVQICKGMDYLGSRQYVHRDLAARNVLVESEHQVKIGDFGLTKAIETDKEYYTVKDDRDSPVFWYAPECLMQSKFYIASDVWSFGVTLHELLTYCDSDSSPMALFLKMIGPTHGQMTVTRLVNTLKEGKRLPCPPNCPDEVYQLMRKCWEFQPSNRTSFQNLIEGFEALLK
Experiment: Analysis of JAK1 activity inhibition ability (ADP-Glo Kinase Assay)
Format: biochemical
Settings: JAK1 enzyme, ADP-Glo luminescence, ATP 250 uM, IRS-itide substrate, 30° C. 40 minutes; read-out: IC50
Readout Name: IC50

Previously resolved entries follow.
{"Compound": "O=C(Cc1ccc(-c2cc(NC(=O)C3CC3)nc3[nH]ccc23)cc1)NCC(F)(F)F", "Value Reported": "20 to 200 nM"}
{"Compound": "CC1CN(C(=O)Cc2ccccc2)CC=C1c1cc(NC(=O)C2CC2)nc2[nH]ccc12 (centres unmarked)", "Value Reported": "20 to 200 nM"}
{"Compound": "C[C@@H]1CN(C(=O)CC2(C#N)CCCCC2)CC=C1c1cc(NC(=O)C2CC2)nc2[nH]ccc12", "Value Reported": "< 20 nM"}

Query the reported IC50 for JAK1 (Homo sapiens (Human), UniProt P23458); item: `CCc1cc(-c2cc(NC(=O)C3CC3)nc3[nH]ccc23)cc(CC)c1NS(=O)(=O)CC1(C#N)CC1` > 200 nM

Query the reported IC50 for JAK1 (Homo sapiens (Human), UniProt P23458); item: `N#CC1(CC(=O)N2CC=C(c3cc(NC(=O)C4CC4)nc4[nH]ccc34)CC2)CC1` 20 to 200 nM

Query the reported IC50 for JAK1 (Homo sapiens (Human), UniProt P23458); item: CSc1ccccc1C(=O)N1CC=C(c2cc(NC(=O)C3CC3)nc3[nH]ccc23)C(C)C1 (centres unmarked) 20 to 200 nM

Query the reported IC50 for JAK1 (Homo sapiens (Human), UniProt P23458); item: `O=C(NCc1ccc(-c2cc(NC(=O)C3CC3)nc3[nH]ccc23)cc1)NCC(F)(F)F` 20 to 200 nM

---

We begin with a simple list: items and their reported IC50.
Molecular target: JAK1 (Homo sapiens (Human), UniProt P23458)
Assay: Analysis of JAK1 activity inhibition ability (ADP-Glo Kinase Assay)
Format: biochemical
Settings: JAK1 enzyme, ADP-Glo luminescence, ATP 250 uM, IRS-itide substrate, 30° C. 40 minutes; read-out: IC50

Previously resolved entries follow.
{"Compound": "CCc1cc(NS(=O)(=O)CC2(CC#N)CC2)ccc1-c1cc(NC(=O)C2CC2)nc2[nH]ccc12", "Assayed System": "JAK1 (Homo sapiens (Human), UniProt P23458)", "Value Reported": "< 20 nM"}
{"Compound": "CCS(=O)(=O)N1CC(n2cc(-c3cc(NC(=O)C4CC4)nc4[nH]ccc34)cn2)C1", "Assayed System": "JAK1 (Homo sapiens (Human), UniProt P23458)", "Value Reported": "20 to 200 nM"}

Consider the additional compound presented here.
Query the reported IC50 for JAK1 (Homo sapiens (Human), UniProt P23458); item: CC1CN(C(=O)c2ccc(O)cc2)CC=C1c1cc(NC(=O)C2CC2)nc2[nH]ccc12 (stereo not drawn) 20 to 200 nM

---

Target: JAK1 (Homo sapiens (Human), UniProt P23458)
Test: Analysis of JAK1 activity inhibition ability (ADP-Glo Kinase Assay)
Format: biochemical
Details: JAK1 enzyme, ADP-Glo luminescence, ATP 250 uM, IRS-itide substrate, 30° C. 40 minutes; read-out: IC50
pIC50: −log10 of the molar value.
Readout Name: pIC50

Previously resolved entries follow.
{"Compound": "CC1CN(C(=O)c2ccncc2F)CC=C1c1cc(NC(=O)C2CC2)nc2[nH]ccc12 (centres unmarked)", "pIC50": "6.70 to 7.70"}
{"Compound": "O=C(Nc1cc(-c2cnn(C3CN(S(=O)(=O)C4CCCCC4)C3)c2)c2cc[nH]c2n1)C1CC1", "pIC50": "< 6.70"}
{"Compound": "CC1CN(C2(CC#N)COC2)CC=C1c1cc(NC(=O)C2CC2)nc2[nH]ccc12 (centres unmarked)", "pIC50": "6.70 to 7.70"}

So what does the record say about pIC50 for `N#CCC(=O)N1CC=C(c2cc(NC(=O)C3CC3)[n+]([O-])c3[nH]ccc23)CC1` ? > 7.70

So what does the record say about pIC50 for `O=C(Nc1cc(-c2ccc(NS(=O)(=O)N3CCCCC3)c(F)c2)c2cc[nH]c2n1)C1CC1` ? > 7.70

So what does the record say about pIC50 for `Cc1c(NC(=O)C2CC2)nc2[nH]ccc2c1C1=CCN(C(=O)CC(F)(F)F)CC1` ? < 6.70

So what does the record say about pIC50 for `N#CC1CN(Cc2ccc(-c3cc(NC(=O)C4CC4)nc4[nH]ccc34)cc2)C1` ? 6.70 to 7.70

So what does the record say about pIC50 for `N#C[C@H]1CCCN1C(=O)CN1C2CCC1CN(c1cc(NC(=O)C3CC3)nc3[nH]ccc13)C2` ? < 6.70

So what does the record say about pIC50 for `N#CCC1(N2CC=C(c3cc(NC(=O)C4CC4)nc4[nH]ccc34)CC2)CN(C(=O)NCC(F)(F)F)C1` ? 6.70 to 7.70

So what does the record say about pIC50 for `O=C(Nc1cc(-c2ccc(NS(=O)(=O)C3CC3)cc2)c2cc[nH]c2n1)C1CC1` ? > 7.70
